TARGET OR TEST SYSTEM: TYK2 (JH2domain-pseudokinase) (Homo sapiens, UniProt P29597)
Construct: TYK2 (JH2domain-pseudokinase)-tagged T7 phage strains were prepared in an E. coli host derived from the BL21 strain
Sequence (P29597 589-875 limits assumed): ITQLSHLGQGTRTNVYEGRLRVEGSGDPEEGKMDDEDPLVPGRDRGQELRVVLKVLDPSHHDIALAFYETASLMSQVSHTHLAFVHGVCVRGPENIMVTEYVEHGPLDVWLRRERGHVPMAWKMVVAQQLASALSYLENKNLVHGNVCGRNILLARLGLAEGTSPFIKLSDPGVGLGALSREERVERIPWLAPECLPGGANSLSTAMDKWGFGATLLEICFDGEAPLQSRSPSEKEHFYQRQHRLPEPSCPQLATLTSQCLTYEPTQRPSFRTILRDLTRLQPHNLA
ASSAY REMARKS: TYK2 JH2 domain binding assay (KINOMEscan)
pKd: −log10 of the molar value.
pKd: recorded values

Before answering, review these 3 worked examples.
{"columns": ["COMPOUND", "TARGET OR TEST SYSTEM", "OBSERVED RESULT"],
 "data": [
  ["Cc1cc(Nc2cc(Nc3ncc(-c4nc(C)nn4C)cc3N(C)S(C)(=O)=O)ncn2)ncn1 [Example 155]", "TYK2 (JH2domain-pseudokinase) (Homo sapiens, UniProt P29597)", "9.00 to 9.70"],
  ["Cc1cc(Nc2cc(Nc3ccc(-c4cnn(C)c4C)cc3S(C)(=O)=O)ncn2)nc(C)n1 [Example 86]", "TYK2 (JH2domain-pseudokinase) (Homo sapiens, UniProt P29597)", "> 9.70"],
  ["CN(c1ccccc1Nc1cc(Nc2ccc(C#N)cn2)ncn1)S(C)(=O)=O [Example 102]", "TYK2 (JH2domain-pseudokinase) (Homo sapiens, UniProt P29597)", "9.00 to 9.70"]
]}

[in] So what's the measured pKd for this one? COc1c(Nc2cc(Nc3cc(C)nc(C)n3)ncn2)cccc1-c1ncn(CC2CC(F)(F)C2)n1 [Example 53]
[out] 9.00 to 9.70

[in] So what's the measured pKd for this one? Cc1cc(Nc2cc(Nc3nccc(C)c3S(C)(=O)=O)ncn2)nc(C)n1 [Example 150]
[out] > 9.70

[in] So what's the measured pKd for this one? COc1cc(-c2ncc(F)cn2)ccc1Nc1cc(Nc2cc(C)nc(C)n2)ncn1 [Example 81]
[out] < 8.00

[in] So what's the measured pKd for this one? COc1c(C)ccnc1Nc1cc(Nc2cc(C)nc(C)n2)ncn1 [Example 132]
[out] 9.00 to 9.70

[in] So what's the measured pKd for this one? COc1cc(C(=O)N2CCCC2)ccc1Nc1cc(Nc2cc(C)nc(C)n2)ncn1 [Example 78]
[out] 8.00 to 9.00
